# Assay Context: Crystal; DTA
± gives the expanded uncertainty stated by the source.
Endpoint Label: Normal melting temperature
The reply should read as a number followed by its unit.

Answered cases to consult:
CCCCCCCC[n+]1cc(C)cc(C)c1.[I-] [3,5-dimethyl-1-octylpyridinium iodide] :: 82.0 ± 2 °C
CCCC[n+]1cc(C)cc(C)c1.N#C[S-] [1-butyl-3,5-dimethylpyridinium thiocyanate] :: 13.0 ± 2 °C
CCCC[n+]1cc(C)cc(C)c1.N#C[N-]C#N [1-butyl-3,5-dimethylpyridinium dicyanamide] :: -1.0 ± 2 °C

Now take the following compound into account.
Look at this compound and give its reported Normal melting temperature. CCCCCCCC[n+]1cc(C)cc(C)c1C.N#C[S-] [2,3,5-trimethyl-1-octylpyridinium thiocyanate]
20.0 ± 2 °C

---

# Assay Context: 293.1 K; 101.33 kPa; Liquid; Pycnometric method
Endpoint Label: mass density (kg/m3)
Note: unit kg/m3 is implicit; provide only the numeric part.

CCCCCCCC[n+]1cc(C)cc(C)c1.N#C[S-] [3,5-dimethyl-1-octylpyridinium thiocyanate] :: 1000

What does the record list as mass density for `CCCCCCCC[n+]1cccc(C)c1C.O=S(=O)([N-]S(=O)(=O)C(F)(F)F)C(F)(F)F` ?
1290

Tell me the measured mass density of `CCCC[n+]1cc(CC)ccc1C.O=S(=O)([N-]S(=O)(=O)C(F)(F)F)C(F)(F)F` , please.
1370
